Biological target: human TRPV3 (Homo sapiens, UniProt Q8NET8)
Construct: expressed in transfected cells
Sequence (Q8NET8 whole entry): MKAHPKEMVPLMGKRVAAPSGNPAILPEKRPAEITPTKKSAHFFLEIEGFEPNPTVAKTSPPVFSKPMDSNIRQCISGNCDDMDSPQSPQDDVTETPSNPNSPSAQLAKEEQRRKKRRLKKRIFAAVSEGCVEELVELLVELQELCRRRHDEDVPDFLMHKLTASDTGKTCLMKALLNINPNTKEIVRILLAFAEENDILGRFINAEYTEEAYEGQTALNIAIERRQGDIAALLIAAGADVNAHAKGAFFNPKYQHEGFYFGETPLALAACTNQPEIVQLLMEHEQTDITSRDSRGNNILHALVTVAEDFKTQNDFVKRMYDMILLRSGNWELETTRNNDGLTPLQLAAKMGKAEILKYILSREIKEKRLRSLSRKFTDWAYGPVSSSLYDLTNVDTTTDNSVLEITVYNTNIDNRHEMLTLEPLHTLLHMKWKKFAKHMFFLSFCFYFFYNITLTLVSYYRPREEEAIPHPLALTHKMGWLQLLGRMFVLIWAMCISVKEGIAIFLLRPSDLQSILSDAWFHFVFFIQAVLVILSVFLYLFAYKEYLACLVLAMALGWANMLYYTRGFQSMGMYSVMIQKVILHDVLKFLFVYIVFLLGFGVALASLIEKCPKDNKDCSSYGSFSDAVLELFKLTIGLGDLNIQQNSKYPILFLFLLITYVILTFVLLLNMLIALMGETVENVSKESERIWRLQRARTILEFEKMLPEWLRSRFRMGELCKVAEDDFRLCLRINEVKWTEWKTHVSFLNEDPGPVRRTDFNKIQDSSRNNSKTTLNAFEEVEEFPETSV
Assay: In vitro antagonism of recombinant human TRPV3 activation (FLIPR Tetra calcium assay, 2-APB as agonist)
Type: cell-based
Conditions: HEK293 cells stably expressing human TRPV3; 2-APB 80 μM; range class; read-out: IC50 (reported range)
pIC50: −log10 of the molar value.
Reported values of pIC50 for individual entries

{"columns": ["COMPOUND", "pIC50"],
 "data": [
  ["Cc1cccc(C2(C(O)c3ccccn3)CCC2)c1 (stereo not shown)", "6.30 to 7.30"],
  ["OC(c1ccccn1)C1(c2cccc(OC(F)(F)F)c2)CCCO1 (stereo not shown) [Example 93]", "6.00 to 6.30"],
  ["O=C1CC(c2cccc(OC(F)(F)F)c2)(C(O)c2ccccn2)C1 (stereo not shown)", "5.30 to 5.96"],
  ["OC1CC(c2ccc(Cl)c(Cl)c2)(C(O)c2ccccn2)C1 (single isomer, unassigned) [Example 119]", "6.00 to 6.30"],
  ["OC(c1ccccn1)C1(c2ccc(F)c(Cl)c2)CC2(C1)OCCO2 (stereo not shown)", "4.70 to 5.29"],
  ["OC(c1ccccn1)C1(c2nc3ccccc3s2)CCC1 (stereo not shown)", "5.30 to 5.96"],
  ["OC(c1ccccn1)C1(c2ccccc2OC(F)(F)F)CCCO1 (stereo not shown) [Example 97]", "6.30 to 7.30"],
  ["OC1CC(c2cncc(C(F)(F)F)c2)(C(O)c2ccccn2)C1 (stereo not shown) [Example 303]", "6.00 to 6.30"],
  ["OC1CC(c2ccc(Cl)c(Cl)c2)(C(O)c2ccccn2)C1 (stereo not shown) [Example 247]", "5.30 to 5.96"],
  ["O[C@H](c1ccccn1)C1(c2cc(C(F)(F)F)ccn2)CCC1", "6.30 to 7.30"],
  ["OC1CC(c2cc(C(F)(F)F)ccn2)(C(O)c2ccccn2)C1 (single isomer, unassigned) [Example 290]", "< 4.70"],
  ["OC(c1ccccn1)C1(C2=CCCOC2)CCC1 (single isomer, unassigned)", "4.70 to 5.29"],
  ["OC(c1ccccn1)C1(c2ccc(C(F)(F)F)nc2)CCC1 (stereo not shown)", "4.70 to 5.29"],
  ["OC(c1ccccn1)C1(c2cccc(Cl)c2)CCCO1 (stereo not shown) [Example 104]", "6.30 to 7.30"],
  ["N[C@@H]1CCC[C@@H]1[C@@H](O)C1(c2ccc(Cl)c(Cl)c2)CCC1", "5.30 to 5.96"],
  ["CC(c1ccc(Cl)cc1)C1(C(O)c2ccccn2)CCC1 (stereo not shown)", "5.30 to 5.96"],
  ["OC(c1ccccn1)C1(C2=COCCC2)CCC1 (single isomer, unassigned)", "5.30 to 5.96"],
  ["OC(c1ccccn1)C1(c2ccc(OC(F)(F)F)cc2)CC2(C1)OCCO2 (stereo not shown)", "4.70 to 5.29"],
  ["CN1CCC(c2ccccc2OC(F)(F)F)(C(O)c2ccccn2)CC1 (stereo not shown)", "4.70 to 5.29"],
  ["CC(C)(C)OC(=O)N1CCC(C2(C(O)c3ccccn3)CCC2)C1 (stereo not shown)", "4.70 to 5.29"],
  ["OC(c1ccccn1)C1(c2cccc(C(F)(F)F)c2)CCCO1 (stereo not shown) [Example 106]", "6.30 to 7.30"],
  ["CC1(O)CC(c2cccc(OC(F)(F)F)c2)(C(O)c2ccccn2)C1 (stereo not shown)", "5.30 to 5.96"],
  ["O[C@@H](c1ccccn1)C1(c2ccc(OC(F)(F)F)cc2)CC(F)(F)C1", "5.30 to 5.96"],
  ["O[C@H](c1ccccn1)C1(c2ccc(Cl)c(Cl)c2)CC1", "6.00 to 6.30"],
  ["OC1CC(c2cccc(OC(F)(F)F)c2)(C(O)c2ccccn2)C1 (stereo not shown) [Example 273]", "6.30 to 7.30"],
  ["Cc1cccc(C2(C(O)c3ccccn3)CCCO2)c1 (stereo not shown)", "6.30 to 7.30"],
  ["N[C@@H]1CCC[C@H]1[C@@H](O)C1(c2ccc(Cl)c(Cl)c2)CCC1", "6.00 to 6.30"],
  ["NC1CCCCC1C(O)C1(c2ccc(Cl)c(Cl)c2)CCC1 (stereo not shown)", "4.70 to 5.29"],
  ["OC1CC(c2ccc(C(F)(F)F)cc2)(C(O)c2ccccn2)C1 (stereo not shown) [Example 200]", "4.70 to 5.29"],
  ["OC(c1ccccn1)C1(c2ccc(Cl)c(Cl)c2)CCCO1 (stereo not shown) [Example 98]", "6.30 to 7.30"],
  ["CC1(O)CC(c2ccc(C(F)(F)F)cc2)(C(O)c2ccccn2)C1 (single isomer, unassigned)", "5.30 to 5.96"],
  ["NC1CCCC1C(O)C1(c2cccc(C(F)(F)F)c2)CCC1 (stereo not shown)", "5.30 to 5.96"],
  ["OC(c1ccccn1)C1(C(c2ccccc2)C(F)(F)F)CCC1 (stereo not shown)", "5.30 to 5.96"],
  ["OC(c1ccccn1)C1(c2nc3ccc(Cl)cc3s2)CCC1 (stereo not shown)", "6.00 to 6.30"]
]}
